molecular target: CD28 (human) (UniProt P10747); experiment: flow cytometry, Jurkat/IL2 reporter cells (CD28)
MEASURED_ENDPOINT: MFI at 33.3 nM (MFI)

Study these solved cases before continuing.
binder="variant CD80 IgV-Fc E35D/M47V/V68M/L85Q/K89N (Fc fusion) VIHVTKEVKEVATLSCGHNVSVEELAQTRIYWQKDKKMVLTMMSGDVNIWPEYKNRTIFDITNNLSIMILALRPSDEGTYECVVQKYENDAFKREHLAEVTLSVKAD" measured_endpoint="MFI at 33.3 nM" units_of_measure=MFI reported_value=246
binder="variant CD80 IgV-Fc E35D/M47V/N48K/V68M/L85Q (Fc fusion) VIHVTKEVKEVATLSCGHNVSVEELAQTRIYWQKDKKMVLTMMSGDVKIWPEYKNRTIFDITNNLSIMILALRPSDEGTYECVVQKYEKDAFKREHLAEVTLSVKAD" measured_endpoint="MFI at 33.3 nM" units_of_measure=MFI reported_value=118
binder="variant CD80 IgV-Fc D46V/M47L/V68M (Fc fusion) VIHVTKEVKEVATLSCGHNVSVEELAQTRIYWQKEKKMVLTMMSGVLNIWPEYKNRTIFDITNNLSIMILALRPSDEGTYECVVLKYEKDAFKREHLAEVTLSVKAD" measured_endpoint="MFI at 33.3 nM" units_of_measure=MFI reported_value=2180
binder="variant CD80 IgV-Fc E35D/M47V/A71G (Fc fusion) VIHVTKEVKEVATLSCGHNVSVEELAQTRIYWQKDKKMVLTMMSGDVNIWPEYKNRTIFDITNNLSIVILGLRPSDEGTYECVVLKYEKDAFKREHLAEVTLSVKAD" measured_endpoint="MFI at 33.3 nM" units_of_measure=MFI reported_value=6360
binder="variant CD80 IgV-Fc M47L/L85Q (Fc fusion) VIHVTKEVKEVATLSCGHNVSVEELAQTRIYWQKEKKMVLTMMSGDLNIWPEYKNRTIFDITNNLSIVILALRPSDEGTYECVVQKYEKDAFKREHLAEVTLSVKAD" measured_endpoint="MFI at 33.3 nM" units_of_measure=MFI reported_value=88.1

a: variant CD80 IgV-Fc E35D/M47L/A71G/L85Q (Fc fusion) VIHVTKEVKEVATLSCGHNVSVEELAQTRIYWQKDKKMVLTMMSGDLNIWPEYKNRTIFDITNNLSIVILGLRPSDEGTYECVVQKYEKDAFKREHLAEVTLSVKAD
b: variant CD80 IgV-Fc E35D/D46V/L85Q (Fc fusion) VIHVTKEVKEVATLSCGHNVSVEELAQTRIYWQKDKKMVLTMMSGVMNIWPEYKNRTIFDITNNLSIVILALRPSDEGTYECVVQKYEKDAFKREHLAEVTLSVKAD
c: variant CD80 IgV-Fc V22D/E35D/M47L/L85Q (Fc fusion) VIHVTKEVKEVATLSCGHNVSDEELAQTRIYWQKDKKMVLTMMSGDLNIWPEYKNRTIFDITNNLSIVILALRPSDEGTYECVVQKYEKDAFKREHLAEVTLSVKAD
d: variant CD80 IgV-Fc E35D/V68M/L85Q (Fc fusion) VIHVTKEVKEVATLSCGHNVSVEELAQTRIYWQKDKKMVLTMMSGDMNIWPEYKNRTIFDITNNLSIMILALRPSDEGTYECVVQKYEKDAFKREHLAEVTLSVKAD
Ask: Task for the reader: rank each entry by its MFI at 33.3 nM, from the minimum upward. Answer by naming the labels in the order asked.
Reply: d, b, c, a
(d: 76.2 MFI, b: 196 MFI, c: 542 MFI, a: 1440 MFI)

Reference for the values: patent US20220177587A1
